Assay: NCI Yeast Anticancer Drug Screen. Data for the mlh1 rad18 strain (AID 175)
Conditions: S. cerevisiae mlh1 rad18 strain growth inhibition, stronger effect = higher value; at 50.0 µM unless noted
Compounds without any hit were thinned out: in the full panel of roughly 79,000, 15% have a hit.
Cut-off 10% on growth inhibition, inclusive. At or above means T; below means F.

Q: Could you tell me if the measured growth inhibition of `CCOc1cccc(C=N)c1O` reaches 10% or more?
A: T

Q: Has CC1C(c2ccccc2)OCCN1C(=S)Nc1ccccc1 (configuration not stated) a recorded growth inhibition greater than or equal to 10%?
A: T

Q: Determine whether this molecule has growth inhibition no lower than 10%: `C=C(C)CC(=O)O.CC(=O)[CH-]C(C)=O.CC(=O)[CH-]C(C)=O.CC(=O)[CH-]C(C)=O.[Zn+2].[Zn]`
A: T

Q: Reported growth inhibition reaches at least 10% for `C=CCCn1nc(-c2ccccc2)oc1=O` ?
A: F

Q: Identify whether the reported growth inhibition of the following molecule is 10% or greater: COc1cc2c(c3oc4c(O)cccc4c(=O)c13)CC(C(C)(O)CO)O2 (configuration not stated)
A: F

Q: Tell me whether growth inhibition is at least 10% here: CC(C(=O)O)c1ccc(-c2ccccc2)cc1 (configuration not stated)
A: F

Q: Could you please find out whether `CCO/C=C(\C)CC1([N+](=O)[O-])C(=O)c2ccccc2C1=O` has growth inhibition that meets 10% or exceeds it?
A: T

Q: Textbook exercise: given the entry `C=CCOC(=O)c1ccccc1` , state whether its growth inhibition is greater than or equal to 10%.
A: F

Q: Please indicate if the recorded growth inhibition for `C[N+](C)(C)CCc1ccc(Cl)cc1` meets or exceeds 10%.
A: T

Q: Given `[N-]=[N+]=C(C(=O)CN1CCCC1=O)S(=O)(=O)c1ccccc1` , state whether its growth inhibition is at least 10%.
A: T

Q: Is reported growth inhibition greater than or equal to 10% here: `S=C(NC1CCCCC1)SSSC(=S)NC1CCCCC1`
A: F

Q: Reported growth inhibition at or above 10%? `Cc1ccc(C)c(NC(=O)Nc2ccccc2)c1`
A: F

Q: Has O=C(O)CS(=O)c1ccc2c3c(cccc13)C(=O)c1ccccc1-2 (configuration not stated) a recorded growth inhibition greater than or equal to 10%?
A: F

Q: State whether the measured growth inhibition reaches 10%, counting equality as reaching it, for `S=C(c1ccccc1)c1cccc2ccccc12`
A: T

Q: Is the recorded value of growth inhibition equal to or greater than 10% for this molecule? `CS(=O)(=O)OCCN(CCOS(C)(=O)=O)c1ccc(C=Nc2ccc(C(=O)O)c(O)c2)cc1`
A: T

Q: Tell me whether growth inhibition is at least 10% here: CC(CCO)CCCO (configuration not stated)
A: F

Q: Answer whether growth inhibition of `CCCCCC(=O)NNC(=O)CCCCC` is greater than or equal to 10%.
A: T

Q: # check: growth inhibition of `Cc1cc(N(CCCCl)CCCCl)ccc1C=Nc1cc(Cl)c(O)c(Cl)c1` is greater than or equal to 10%
A: T

Q: Item `Cc1ncc(CN=Cc2ccc(Cl)cc2)c(N)n1` with growth inhibition of 10% or above?
A: T

Q: Is it the case that `CC(=O)Nc1c(N)c2ccccc2c2ccccc12` has growth inhibition reaching or exceeding 10%?
A: F

Q: Does growth inhibition meet or surpass 10% for `CCCCn1cnc2c(SC)ncnc21` ?
A: F

Q: Does the molecule CCC1([N+](C)(C)C)CSC1C (configuration not stated) have recorded growth inhibition that is 10% or more?
A: F

Q: Reported growth inhibition at or above 10%? `NC1(CC(=O)O)CCN(Cc2ccccc2)CC1`
A: F

Q: growth inhibition >= 10% for NC(C(=O)O)c1ccc(CBr)cc1 (configuration not stated) ?
A: F

Q: Check this molecule for growth inhibition at or above 10%: `OC1(C2(O)CCCC2)CCCC1`
A: T

Q: Answer whether growth inhibition of `CN(C)/C=N/NC(=O)/C(C#N)=C/N(C)C` is greater than or equal to 10%.
A: F

Q: Exam item: decide whether the reported growth inhibition for `C=CCOC(=O)c1ccc(C(C)C)cc1` is at least 10%.
A: T

Q: Given `c1ccc(C2=NN(c3ccccc3)CC2)cc1` , state whether its growth inhibition is at least 10%.
A: F

Q: Does growth inhibition meet or surpass 10% for `Cc1nc2[nH]ncc2c(=O)n1-c1ccccc1Cl` ?
A: F

Q: Identify whether the reported growth inhibition of the following molecule is 10% or greater: CN1c2ccccc2N(C)C23N(C)c4ccccc4N(C)C12N(C)c1ccccc1N3C (configuration not stated)
A: F

Q: Does `CN(/C(=N/C(=S)NCc1ccccc1)SCc1ccccc1)c1ccccc1` have a reported growth inhibition of at least 10%?
A: T

Q: Say whether O=C(OC1C2C=COC(OC3OC(CO)C(O)C(O)C3O)C2C2(CO)OC12)c1ccc(O)cc1 (configuration not stated) shows growth inhibition of 10% or more.
A: F

Q: Assess whether reported growth inhibition for N#CCc1cccc(Cl)c1Cl (tested in a mixture with another compound) sits at 10% or higher.
A: F

Q: Hello, I need to know if `O=C(O)c1nc2ccccc2nc1C(=O)O` has measured growth inhibition not below 10%. Thanks!
A: F

Q: Hi team, for `Cc1cc[n+]2cc(-c3ccc(/C=N/N=C(N)N)cc3)n(C)c2c1` , is the recorded growth inhibition at or above 10%?
A: T

Q: Textbook exercise: given the entry CC(=O)OC(CCC1CO1)OC(C)=O (configuration not stated) , state whether its growth inhibition is greater than or equal to 10%.
A: F

Q: Please tell me: is the molecule COC1/C=C/OC2(C)Oc3c(C)c(O)c4c(O)c(c(C5SCCS5)c(O)c4c3C2=O)NC(=O)C(C)=C/C=C\C(C)C(O)C(C)C2OC(C)(C)OC(C1C)C2C (configuration not stated) at or over 10% in terms of growth inhibition?
A: T
